methodDescription: gradient 5% acetonitrile 3 min, to 50% in 2 min, to 85% in 15 min, held 3 min, 100 µL/min
experimentalConditions: column: Zorbax Extend-C18 2.1 x 50 mm; eluents: water / acetonitrile, 0.1% formic acid
measuredEndpoint: RP-LC retention time (s)

Some solved entries appear below for comparison.
CCn1c(=O)n(CC(=O)NCCC(C)C)c(=O)c2cnc(-c3ccccc3)nc21 :: 678
COc1ccc(CCNC(=O)c2cccc3c2C(=O)N(CC2CCCO2)C3)c(OC)c1OC (stereo unspecified) :: 875
CCn1cc(-c2nc(C(=O)Nc3cccc(C(=O)OC)c3)cs2)c2cccnc21 :: 1060
COc1ccccc1N1CCN(c2cc(SCC(=O)Nc3cccc(C)c3C)ncn2)CC1 :: 1030

(P) COc1c(C(=O)NC2CCCC2)sc2ccc(F)cc12
(Q) Cc1nc(-c2noc(-c3ccncc3)n2)cn1CC(=O)NCc1ccc(Cl)cc1
Req: Pick one, P or Q : lowest reported RP-LC retention time. Respond with the label that goes with your answer.
Resp: Q
(Q: 683 s, P: 1080 s)
